Biological target: UniProt P30968
Sequence (P30968 whole entry): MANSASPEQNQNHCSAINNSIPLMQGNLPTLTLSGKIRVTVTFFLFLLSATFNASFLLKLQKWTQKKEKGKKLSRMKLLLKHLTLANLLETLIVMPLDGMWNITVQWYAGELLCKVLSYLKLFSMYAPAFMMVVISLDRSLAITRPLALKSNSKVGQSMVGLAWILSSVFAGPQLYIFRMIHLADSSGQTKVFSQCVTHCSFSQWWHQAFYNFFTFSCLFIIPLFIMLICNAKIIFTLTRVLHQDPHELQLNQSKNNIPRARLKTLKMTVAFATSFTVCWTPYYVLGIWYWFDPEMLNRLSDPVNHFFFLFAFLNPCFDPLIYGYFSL
Assay: FLIPR calcium flow assay of inhibitory activity on gonadotropin-releasing hormone receptor in GnRH/HEK293 cells
Conditions: Ca2+ flow, agonist Leuprolide acetate, read-out: IC50 on inhibiting the activity of human gonadotropin-releasing hormone receptor
PROPERTY LABEL: pIC50
To interpret pIC50, take it as minus log10 of a concentration measured in moles per litre.

Return pIC50 measured with UniProt P30968 given this compound: O=C(O)c1scc2[nH]c(=O)n(-c3cc4c(cc3F)OCCCOc3ccc(F)c(F)c3CO4)c(=O)c12 8.49

----------
Assay: Pharmacokinetic evaluation in mice (plasma)
Assay type: in vivo
Conditions: mouse, PO 2 mg/kg, male CD-1 mice
PROPERTY LABEL: Tmax (min)
Kindly answer with a numeric value in min, unit omitted.

Fill in the blank: the reported Tmax of O=C(O)c1scc2[nH]c(=O)n(-c3cc4c(cc3F)OCCCOc3ccc(F)c(F)c3CO4)c(=O)c12 is ____. 30
